meta.source: patent US6972319B1

Target: PACAP-R3 (Homo sapiens, UniProt P41587)
Assay: Cyclic AMP SPA on CHO cells expressing PACAP R3
Type: cell-based
Design: expressed in transfected cells; host or cells: CHO cells (Geneticin selection)
Conditions: ratio of EC50 at R2 versus EC50 at R3
Protocol: CHO cells expressing the PACAP R3 were plated in 96-well plates (Costar) at 8×10^4 cell/well and grown at 37 C. for 24 hours in α MEM+nucleosides+glutamine (Giobco BRL), 10% FBS, 100 μg/ml Pen/Strep, 0.3 mg/ml glutamine, 1 mM HEPES, 0.5 mg/ml Geneticin (Gibco BRL). The media was removed and the plates were washed with PBS. […] Cyclic AMP in the cell extracts was quantitated using the cAMP SPA direct screening assay system (Amersham Pharmacia Biotech Inc, Piscataway, N.J.,). […]
No end group written: not given here.
For each of the substances below, state its R3 Selectivity.
One number for each entry.

Solved cases (2 shown):
- substance: "HSDAVFTDNYTRLRKQVAAKKYLQSILNK [Peptide R3P94]"
  R3 Selectivity: 100
- substance: "HSDAVFTDNYTRLRKQMAAKKYLNSIKNHR [Peptide R3P140]"
  R3 Selectivity: 50

// each listed substance needs a value for R3 Selectivity
1. HSDAVFTDNYTRLRKQMAKKKYLNSIPNRI [rR3P181]
2. HSDGIFTDSYSRYEKQMAVKKYLAAVL-NH2 [PAC14]

A.
1: 50; 2: 70

====

Biological target: PACAP-R3 (Homo sapiens)
Sequence (P41587 24-438): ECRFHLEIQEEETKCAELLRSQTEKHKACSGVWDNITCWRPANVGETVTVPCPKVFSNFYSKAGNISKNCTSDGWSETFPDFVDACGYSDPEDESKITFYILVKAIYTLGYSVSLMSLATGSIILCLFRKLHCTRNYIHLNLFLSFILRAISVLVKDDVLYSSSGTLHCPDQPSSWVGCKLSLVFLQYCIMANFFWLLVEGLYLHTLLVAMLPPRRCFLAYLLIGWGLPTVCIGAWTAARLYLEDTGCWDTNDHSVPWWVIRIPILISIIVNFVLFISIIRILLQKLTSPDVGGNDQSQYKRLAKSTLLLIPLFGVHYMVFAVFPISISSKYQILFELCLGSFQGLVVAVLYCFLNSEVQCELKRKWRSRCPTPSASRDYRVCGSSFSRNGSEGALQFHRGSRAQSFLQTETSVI
Assay: Cyclic AMP SPA on CHO cells expressing PACAP R3
Assay type: cell-based
Set-up: expressed in transfected cells; host or cells: CHO cells (Geneticin selection)
Conditions: ratio of EC50 at R2 versus EC50 at R3
No end group written: not given here.
property name: R3 Selectivity

- construct sequence: "HSDAVFTDNYTRLRKQMAAKKYLNSIKNKE [Peptide R3P156]"
  R3 Selectivity: 100
- construct sequence: "HSDAVFTDNYTRLRKQMAAKKYLNSIKNPR [Peptide R3P145]"
  R3 Selectivity: 100
- construct sequence: "HSDAVFTDNYTRLRKQMAVKKYLNSIKKGGT [Peptide R3P9]"
  R3 Selectivity: 20
- construct sequence: "HSDAVFTDNYTRLRKQLAVKKYLNSIKKGGT [Peptide R3P25]"
  R3 Selectivity: 20
- construct sequence: "HSDAVFTDNYTRLRKQVAVKKYLQSIKKK [Peptide R3P81]"
  R3 Selectivity: 100

I have 4 sequences here; please give me R3 Selectivity for each one.
1. HSDAVFTDNYTRLRKQVAAKKYLNSIKK [Peptide R3P62]
2. HSDAVFTDNYTRLRKQMASKKYLNSIPNRI [rR3P183]
3. HSDAVFTDNYTRLRKQVAAKKYLQSILNKRY [Peptide R3P92]
4. HSDAVFTDNYTRLRKQMAAKKYLNSIKNER [Peptide R3P137]

A.
1: 100; 2: >30; 3: 100; 4: 100

====

Biological target: PACAP-R3 (Homo sapiens, UniProt P41587)
Experiment: Cyclic AMP SPA on CHO cells expressing PACAP R3
Format: cell-based
Set-up: expressed in transfected cells; host or cells: CHO cells (Geneticin selection)
Settings: cAMP SPA, CHO cells transfected with PACAP-R3; concentration at which 50% of maximum PACAP27 activity is achieved; NA = no detectable activities; read-out: R3 EC50
No end group written: not given here.
Can you tell me EC50 for the items I'm about to list?
Give bare numbers, in pM.

// below: answered substances
- substance: "HSDGIFTKSYSRYRKQMAVKKYLAAVL-NH2 [PAC8]"
  EC50 / pM: 47000
- substance: "HSDAVFTDNYTRLRKQMAAKKYLNSIKNLR [Peptide R3P142]"
  EC50 / pM: 200
- substance: "HSDAVFTDNYTRLRKQMAAKKYLNSIKNKG [Peptide R3P158]"
  EC50 / pM: 70
- substance: "HSDAVFTDNYTRLRKQMAAKKYLNSIKNKF [Peptide R3P157]"
  EC50 / pM: 300

Please supply EC50 for each of the following items, keeping them in order.
1. HSDAVFTDNYTRLRKQMAAKKYLNSIKNPR [Peptide R3P145]
2. HSDAVFTDNYTRLRKQMAAKKYLNSIKNQR [Peptide R3P146]
3. HSDAVFTDNYTRLRKQVAAKKYLNSIKKKR [Peptide R3P78]
4. HSDAVFTDNYTRLRKQMAHKKYLNSIKNKR [Peptide R3P102]
5. HSDAVFTDNYTRLRKQMAEKKYLNSIKNKR [Peptide R3P99]

A.
[500, 300, 1100, 60000, 1000]

====

Target: PACAP-R3 (Homo sapiens)
Sequence (P41587 24-438): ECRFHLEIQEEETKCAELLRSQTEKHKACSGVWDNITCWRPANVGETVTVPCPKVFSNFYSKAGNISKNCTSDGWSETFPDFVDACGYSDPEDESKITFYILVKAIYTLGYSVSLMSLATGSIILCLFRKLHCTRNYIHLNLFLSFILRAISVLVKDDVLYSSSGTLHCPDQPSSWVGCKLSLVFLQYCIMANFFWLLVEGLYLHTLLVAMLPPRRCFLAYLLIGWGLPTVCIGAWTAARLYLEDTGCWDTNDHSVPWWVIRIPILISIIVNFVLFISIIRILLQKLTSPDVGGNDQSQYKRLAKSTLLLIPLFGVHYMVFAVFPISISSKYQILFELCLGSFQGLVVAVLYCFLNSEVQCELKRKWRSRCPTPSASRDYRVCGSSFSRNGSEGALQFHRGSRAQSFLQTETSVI
Assay: Cyclic AMP SPA on CHO cells expressing PACAP R3
Type: cell-based
Design: expressed in transfected cells; host or cells: CHO cells (Geneticin selection)
Details: ratio of EC50 at R2 versus EC50 at R3
No end group written: not given here.
Answer each item with its documented R3 Selectivity.

Example cases with answers are listed next.
- construct sequence: "HSDAVFTDNYTRLRKQMAAKKYLNSIKKKRY [Peptide R3P52]"
  property name: "R3 Selectivity"
  result: ">250"
- construct sequence: "HSDAVFTDNYTRLRKQLAAKKYLNDIKKGGT [Peptide R3P12]"
  property name: "R3 Selectivity"
  result: ">200"

Next item in the queue.
Q. What measured R3 Selectivity goes with HSDAVFTDQYTRLRKQLAAHKYLNTIKNKRY [Peptide R3P75] ?
A. >500

====

Biological target: PACAP-R2 (Homo sapiens, UniProt P32241)
Construct: expressed in transfected cells; host or cells: CHO cells
Sequence (P32241 31-457, species assumed): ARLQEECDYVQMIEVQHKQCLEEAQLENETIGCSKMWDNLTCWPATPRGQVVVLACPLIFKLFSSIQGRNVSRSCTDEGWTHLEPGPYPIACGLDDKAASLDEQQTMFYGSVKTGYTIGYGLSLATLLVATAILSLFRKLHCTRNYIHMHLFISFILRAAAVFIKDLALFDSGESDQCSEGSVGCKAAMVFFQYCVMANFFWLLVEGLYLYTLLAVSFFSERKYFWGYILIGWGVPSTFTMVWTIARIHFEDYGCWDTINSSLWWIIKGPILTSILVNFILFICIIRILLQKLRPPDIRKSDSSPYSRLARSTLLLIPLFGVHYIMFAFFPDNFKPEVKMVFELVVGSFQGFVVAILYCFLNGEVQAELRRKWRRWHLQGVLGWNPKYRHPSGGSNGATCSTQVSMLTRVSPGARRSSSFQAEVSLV
Assay: Cyclic AMP SPA on CHO cells transfected with PACAP-R2
Type: cell-based
Details: cAMP SPA, concentration at which 50% of maximum PACAP27 activity is achieved, NA = no detectable activities, read-out: R2 EC50
Experimental: CHO cells expressing the PACAP R3 were plated in 96-well plates (Costar) at 8×10^4 cell/well and grown at 37 C. for 24 hours in α MEM+nucleosides+glutamine (Giobco BRL), 10% FBS, 100 μg/ml Pen/Strep, 0.3 mg/ml glutamine, 1 mM HEPES, 0.5 mg/ml Geneticin (Gibco BRL). The media was removed and the plates were washed with PBS. […] Cyclic AMP in the cell extracts was quantitated using the cAMP SPA direct screening assay system (Amersham Pharmacia Biotech Inc, Piscataway, N.J.,). […]
No end group written: not given here.
Please respond with TRUE when measured EC50 is strictly beneath 3 nM, and with FALSE in all other cases.

Q. Lab note: confirm whether the reported EC50 for this substance is below 3 nM, equality not counting. substance: HSDAVFTDNYTRLRKQMAAKKYLNSIENKR [Peptide R3P119]
A. FALSE

Q. Now the substance H-HSDAVFTDNYTRLRKQMAVKKYLNSIKN [Peptide R3P42]
A. TRUE

====

Hi there, I'd appreciate the recorded R3 Selectivity for every entry that follows.
Target: PACAP-R3 (Homo sapiens)
Assay: Cyclic AMP SPA on CHO cells expressing PACAP R3
Type: cell-based
Design: expressed in transfected cells; host or cells: CHO cells (Geneticin selection)
Conditions: ratio of EC50 at R2 versus EC50 at R3
No end group written: not given here.
Numbers only.

Give R3 Selectivity for all substances that follow.
1. HSDAVFTDNYTRLRKQMAYKKYLNSIKNKR [Peptide R3P115]
2. HSDAVFTDNYTRLRKQMAAKKYLNSIKNIR [Peptide R3P141]
3. HSDAVFTDNYTRLRKQVAAKKYLNSIKNKRY [Peptide R3P79]
4. H-HSDAVFTDNYTRLRKQMAAKKYLNSIGNKR-OH [Peptide R3P121]
5. HSDAVFTDNYTRLRKQVAVKKYLQSILKKR [Peptide R3P88]
6. HSDAVFTDNYTRLRKQMAVKKYLNSIKKKRY [Peptide R3P56]
7. HSDAVFTDNYTRLRKQMAAKKYLNSIKNKA [Peptide R3P153]
8. HSDAVFTDNYTRLRKQMAAKKYLNSIHNKR [Peptide R3P122]

A.
1: 50; 2: 100; 3: 200; 4: 50; 5: 12; 6: 100; 7: 200; 8: 50

Your task in this section: give R3 Selectivity for each listed record.
1. HSDAVFTDNYTRLRKQMAAKKYLNSITNKR [Peptide R3P130]
2. H-HSDGIFTDSYSEYRKQMAVKKYLAAVL-NH2 [PAC12]
3. HSDAVFTDNYTRLRKQMAKKKYLNSIQNRI [rR3P186]
4. HSDAVFTDNYTRLRKQVAVKKYLQSIKNKRY [Peptide R3P82]
5. HSDAVFTDNYTRLRKQMAAKKYLNSIKK [Peptide R3P51]
6. HSDAVFTDNYTRLRKQMAAKKYLNSIPNRI [rR3P179]

A.
1: 40; 2: 50; 3: 44; 4: 23; 5: 90; 6: 150

Q. // R3 Selectivity lookup, key: H-HSDAVFTDNYTRLRKQMAVKKYLNSIKN [Peptide R3P42]
A. 10
